We begin with a simple list: items and their reported DL0 oral (maximum dose which did not cause any mortality after 8 days).
test system: mice; test: Acute Toxicity (lethal dose LD0); assay type: in vivo; settings: oral
Where a name gives a salt, the structure may show the parent alone.
Entry rule: numbers only, all in mg/kg.

COMPOUND	MEASURED TARGET	RESULT VALUE
C[C@H](O)[C@H]1CC[C@H]2[C@@H]3CC[C@H]4C[C@@H](N)CC[C@@H]4[C@H]3CC[C@]12C [Example 5, hydrochloride]	mice	400

Next up:
## Input Give mice DL0 oral (maximum dose which did not cause any mortality after 8 days) for C[C@H](O)[C@@]1(O)CC[C@H]2[C@@H]3CC[C@H]4C[C@H](N)CC[C@]4(C)[C@H]3CC[C@@]21C [Example 3, hydrochloride]
## Output 200
